system: Mus musculus; assay: Inhibition of locomotor activity (LMA) and motor coordination in mice by intraperitoneal administration.; assay type: functional; details: ip
assay metric: ED50

{"columns": ["structure smiles string", "target or system", "readout value"],
 "data": [
  ["Cc1ccc(C(=N)c2c(C)[nH]n(C)c2=O)cc1", "Mus musculus", "> 100 mg/kg"],
  ["COc1ccc(C(=N)c2c(C)[nH]n(C)c2=O)cc1", "Mus musculus", "> 100 mg/kg"],
  ["Cc1[nH]n(C)c(=O)c1C(=N)c1cccc(C(F)(F)F)c1", "Mus musculus", "> 30 mg/kg"],
  ["Cc1[nH]n(C)c(=O)c1C(=N)c1ccc(N)cc1", "Mus musculus", "> 100 mg/kg"],
  ["Cc1[nH]n(C)c(=O)c1C(=N)c1ccc([N+](=O)[O-])cc1", "Mus musculus", "> 90 mg/kg"]
]}
